- System: biotinyl-Trp-oxazolone
- experiment_summary: self-aminoacylation, catalytic enhancement (BWO) (fold over background); higher = more active; k-Seq, kA / k0A0; sequences stand for … in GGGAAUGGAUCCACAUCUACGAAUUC…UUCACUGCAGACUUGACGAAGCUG
This sample holds only a part of the variants without activity.

item_sequence | target_of_assay | self-aminoacylation
CCACACUUCAGACAAUCGGUC [Fam1B.1 aminoacylation ribozyme variant] | biotinyl-Trp-oxazolone | 1.29
UAACACUUCAAGCAAUCGGUC [Fam1B.1 aminoacylation ribozyme variant] | biotinyl-Trp-oxazolone | 13.3
CUACUUCAAACAAACGGUUUG [Fam1A.1 aminoacylation ribozyme variant] | biotinyl-Trp-oxazolone | 0.396
AUUCGCCUAGGUCGUCGGGUG [Fam2.2 aminoacylation ribozyme variant] | biotinyl-Trp-oxazolone | 1.51

====

- System: biotinyl-Trp-oxazolone
- experiment_summary: self-aminoacylation, catalytic enhancement (BWO) (fold over background); higher = more active; k-Seq, kA / k0A0; sequences stand for … in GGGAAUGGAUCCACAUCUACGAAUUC…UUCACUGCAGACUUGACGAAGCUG
Fewer inactive variants are shown than the library holds.
Is self-aminoacylation at least 2? Then Met. If not, Not met.

item_sequence | label
CUACUUCAAUCAAUGGGUCUG [Fam1A.1 aminoacylation ribozyme variant] | Not met
AAAUUUGCUAAUACUCGCAAG [Fam3.1 aminoacylation ribozyme variant] | Not met
CUACUCCAAACACUCGGUCUG [Fam1A.1 aminoacylation ribozyme variant] | Not met
CUACUUUAAACAAUCGGACUG [Fam1A.1 aminoacylation ribozyme variant] | Not met
CUACUUCACACAAUCGGUCUU [Fam1A.1 aminoacylation ribozyme variant] | Not met
AUUACUCUGGUCAUCGAGUGU [Fam2.1 aminoacylation ribozyme variant] | Met
CUACUUCAAUCAAUCGGUCAG [Fam1A.1 aminoacylation ribozyme variant] | Met
CUACUUCAGACAAACGGUCUG [Fam1A.1 aminoacylation ribozyme variant] | Not met

====

- System: biotinyl-Ile-oxazolone
- experiment_summary: self-aminoacylation, catalytic enhancement (BIO) (fold over background); higher = more active; k-Seq, kA / k0A0; sequences stand for … in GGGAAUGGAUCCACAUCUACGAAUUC…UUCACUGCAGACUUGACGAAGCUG
Variants at the floor of the assay were thinned out.
readout_label: self-aminoacylation

item_sequence | experimental_value
AUUACCCUGGUCAUCACGUGA [Fam2.1 aminoacylation ribozyme variant] | 3.08
AAGUUUGCUGAUUGUCGCAAG [Fam3.1 aminoacylation ribozyme variant] | 0.948
CCACACUUCAAGCAGUCGGUG [Fam1B.1 aminoacylation ribozyme variant] | 2.18
UUUACCCUGGUCAUCAAGUGA [Fam2.1 aminoacylation ribozyme variant] | 1.25
AUUCACCCUGGUCAUCGGGUG [Fam2.2 aminoacylation ribozyme variant] | 5.16

====

- System: biotinyl-Trp-oxazolone
- experiment_summary: self-aminoacylation, catalytic enhancement (BWO) (fold over background); higher = more active; k-Seq, kA / k0A0; sequences stand for … in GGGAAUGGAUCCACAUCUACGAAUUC…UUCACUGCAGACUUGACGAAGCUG
Fewer inactive variants are shown than the library holds.
Is self-aminoacylation at least 2? Then condition met. If not, condition not met.

item_sequence | label
AAAUUUGCUAAUAGUCGCAAC [Fam3.1 aminoacylation ribozyme variant] | condition not met
AUUCGCCUAGGUCAUCGCGUG [Fam2.2 aminoacylation ribozyme variant] | condition met
CAGUUUGCUAAUAGUCGCAAG [Fam3.1 aminoacylation ribozyme variant] | condition not met
AUUCGCGUAGGUCAUCGGGUG [Fam2.2 aminoacylation ribozyme variant] | condition met

====

- Test system: biotinyl-Val-oxazolone
- experiment_summary: self-aminoacylation, catalytic enhancement (BVO) (fold over background); higher = more active; k-Seq, kA / k0A0; sequences stand for … in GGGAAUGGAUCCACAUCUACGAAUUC…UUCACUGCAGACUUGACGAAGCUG
This sample holds only a part of the variants without activity.

item_sequence | target_of_assay | self-aminoacylation
AUCACCCUGGUCAACGAGUGA [Fam2.1 aminoacylation ribozyme variant] | biotinyl-Val-oxazolone | 4.69
AUUACCCUGGUCAUCGAAUGC [Fam2.1 aminoacylation ribozyme variant] | biotinyl-Val-oxazolone | 0.68
AUUCACCCUGGUCAUCGGGUG [Fam2.2 aminoacylation ribozyme variant] | biotinyl-Val-oxazolone | 5.5
CCGCAGUUCAAGCAAUCGGUC [Fam1B.1 aminoacylation ribozyme variant] | biotinyl-Val-oxazolone | 1.82
AUUCACUUAGGUCAUCGGCUG [Fam2.2 aminoacylation ribozyme variant] | biotinyl-Val-oxazolone | 1.65

====

- Test system: biotinyl-Met-oxazolone
- experiment_summary: self-aminoacylation, catalytic enhancement (BMO) (fold over background); higher = more active; k-Seq, kA / k0A0; sequences stand for … in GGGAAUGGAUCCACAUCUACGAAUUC…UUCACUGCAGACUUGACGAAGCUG
Variants at the floor of the assay were thinned out.

item_sequence | self-aminoacylation
AUUGCCCCGGUCAUCGAGUGA [Fam2.1 aminoacylation ribozyme variant] | 5.22
AUUACCCUGGCUAUCGAGUGA [Fam2.1 aminoacylation ribozyme variant] | 2.14
AUUCUCCUAGGUCAUCUGGUG [Fam2.2 aminoacylation ribozyme variant] | 4.5
AUUACCCUGGUCAGCGAAUGA [Fam2.1 aminoacylation ribozyme variant] | 1.43
GCACACUUCAAGCAUUCGGUC [Fam1B.1 aminoacylation ribozyme variant] | 2.09
AUUCAUCUAGGUCAUCGGGGG [Fam2.2 aminoacylation ribozyme variant] | 2.13
AAGUUUGCUAAGAGUCGCAAU [Fam3.1 aminoacylation ribozyme variant] | 0.797
AUUCCCCAGGUCAUCGAGUGA [Fam2.1 aminoacylation ribozyme variant] | 4.86
CCACACUACAAGCAAUCUGUC [Fam1B.1 aminoacylation ribozyme variant] | 0.271
AUUCACCUAGUUCAUCGAGUG [Fam2.2 aminoacylation ribozyme variant] | 1.21
AUUCACCUAGGUCUUCAGGUG [Fam2.2 aminoacylation ribozyme variant] | 2.04
AAGUUUUCUAAUAGUCGCAAA [Fam3.1 aminoacylation ribozyme variant] | 1.54
CUACUUCAAACAAUAGGACUG [Fam1A.1 aminoacylation ribozyme variant] | 0.6
AGUCACCUAGGUCUUCGGGUG [Fam2.2 aminoacylation ribozyme variant] | 6.75
CCACACUUCAGACAAUCGGUC [Fam1B.1 aminoacylation ribozyme variant] | 0.902
UUACACCUAGGUCAUCGGGUG [Fam2.2 aminoacylation ribozyme variant] | 1.92
AAGUUUGCUAUUAGUCGCAAG [Fam3.1 aminoacylation ribozyme variant] | 0.814
CUACUUGAAACAAUCGGUCCG [Fam1A.1 aminoacylation ribozyme variant] | 1.31
CAGUUUGCUAGUAGUCGCAAG [Fam3.1 aminoacylation ribozyme variant] | 0.827
AUUACCCGGGUCCUCGAGUGA [Fam2.1 aminoacylation ribozyme variant] | 5.42
AAAUUAGCUAAUAGUCGCAAG [Fam3.1 aminoacylation ribozyme variant] | 1.85
AUUCACCUAGGUCAGCGGGUG [Fam2.2 aminoacylation ribozyme variant] | 4.39
AAGUUUGCCACUAGUCGCAAG [Fam3.1 aminoacylation ribozyme variant] | 0.991
AAGUUUACUAAUAGUCGCGAG [Fam3.1 aminoacylation ribozyme variant] | 1.59
AAGUUUGCUUAAAGUCGCAAG [Fam3.1 aminoacylation ribozyme variant] | 0.754
AUUCACCUAGGUCAUCGCUUG [Fam2.2 aminoacylation ribozyme variant] | 1.32
CAACUUCAAUCAAUCGGUCUG [Fam1A.1 aminoacylation ribozyme variant] | 1.36
CCACACUGCAAGCAAUCGGUG [Fam1B.1 aminoacylation ribozyme variant] | 4.9
AUCCACCUAGGUCAUCGGAUG [Fam2.2 aminoacylation ribozyme variant] | 1.19
CUACUUCAAUCAAUGGGUCUG [Fam1A.1 aminoacylation ribozyme variant] | 0.801
AUUCACCUAGGGCAACGGGUG [Fam2.2 aminoacylation ribozyme variant] | 2.81
AUUACCCUGGUCAUGGAGUGC [Fam2.1 aminoacylation ribozyme variant] | 0.858
CCACACUUCCGGCAAUCGGUC [Fam1B.1 aminoacylation ribozyme variant] | 2.02
AUUACCCUGGUUAUUGAGUGA [Fam2.1 aminoacylation ribozyme variant] | 14.4
CUACUUCACACAAUCUGUCUG [Fam1A.1 aminoacylation ribozyme variant] | 0.558

====

- Tested on: biotinyl-Phe-oxazolone
- experiment_summary: self-aminoacylation, catalytic enhancement (BFO) (fold over background); higher = more active; k-Seq, kA / k0A0; sequences stand for … in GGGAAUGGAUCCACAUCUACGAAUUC…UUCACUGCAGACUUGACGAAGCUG
Variants at the floor of the assay were thinned out.

item_sequence | self-aminoacylation
AACUUUGCAAAUAGUCGCAAG [Fam3.1 aminoacylation ribozyme variant] | 4.66
AUUCACCUAGGUCCUUGGGUG [Fam2.2 aminoacylation ribozyme variant] | 31.7
CCGUACUUCAAGCAAUCGGUC [Fam1B.1 aminoacylation ribozyme variant] | 34.5
AAGUUUGAUUAUAGUCGCAAG [Fam3.1 aminoacylation ribozyme variant] | 2.29
AUUACCCUGCUCAUCGAGUGU [Fam2.1 aminoacylation ribozyme variant] | 1.08
AUUACCCUGGGCAUCGUGUGA [Fam2.1 aminoacylation ribozyme variant] | 7.88
AUUACCCUGGUCAUGGAGUUA [Fam2.1 aminoacylation ribozyme variant] | 0.664
AAUCACCUAGGACAUCGGGUG [Fam2.2 aminoacylation ribozyme variant] | 19.1
CCACACUUGAAGCAAUAGGUC [Fam1B.1 aminoacylation ribozyme variant] | 0.578
AUUCACCGAGGUCAUCAGGUG [Fam2.2 aminoacylation ribozyme variant] | 2.42
CCACAGUUCAAGAAAUCGGUC [Fam1B.1 aminoacylation ribozyme variant] | 1.71
AGGUUUGCUAAUAGUCGCCAG [Fam3.1 aminoacylation ribozyme variant] | 1.14
AUUCCCCUAUGUCAUCGGGUG [Fam2.2 aminoacylation ribozyme variant] | 154
AAGUUUGAGAAUAGUCGCAAG [Fam3.1 aminoacylation ribozyme variant] | 2.05
CUACUUCUAACAAUCGGUGUG [Fam1A.1 aminoacylation ribozyme variant] | 0.728
AGGUUCGCUAAUAGUCGCAAG [Fam3.1 aminoacylation ribozyme variant] | 12.3
AUUCACCUAUGUCAUCGGGUA [Fam2.2 aminoacylation ribozyme variant] | 1.14
UUACACCUAGGUCAUCGGGUG [Fam2.2 aminoacylation ribozyme variant] | 10.5
AUUGACCUAGGUCAUCCGGUG [Fam2.2 aminoacylation ribozyme variant] | 28.3
AUUCACCUAGGGCAUCGGGUG [Fam2.2 aminoacylation ribozyme variant] | 20.3
UAGUUUGCUAACAGUCGCAAG [Fam3.1 aminoacylation ribozyme variant] | 5.84
AUUACCCUGAUAAUCGAGUGA [Fam2.1 aminoacylation ribozyme variant] | 39.8
UCACAUUUCAAGCAAUCGGUC [Fam1B.1 aminoacylation ribozyme variant] | 2.47
AAGUUUGCUGAUUGUCGCAAG [Fam3.1 aminoacylation ribozyme variant] | 1.02
CGACUUCAAUCAAUCGGUCUG [Fam1A.1 aminoacylation ribozyme variant] | 42.2
AAGUCUGCUAUUAGUCGCAAG [Fam3.1 aminoacylation ribozyme variant] | 4.82
CCACGCUUUAAGCAAUCGGUC [Fam1B.1 aminoacylation ribozyme variant] | 1.27
CCACGCUUCAAGAAAUCGGUC [Fam1B.1 aminoacylation ribozyme variant] | 10.3
AUUACCCUGGGCAUUGAGUGA [Fam2.1 aminoacylation ribozyme variant] | 58.7
AAGUUUGCUAAAAGUCGUAAG [Fam3.1 aminoacylation ribozyme variant] | 25.8
ACACACUUCAAGCAAUCGGUG [Fam1B.1 aminoacylation ribozyme variant] | 56.7
AAGAUUGCUAAUAGUCGGAAG [Fam3.1 aminoacylation ribozyme variant] | 1.84
CUACUUAAAACAGUCGGUCUG [Fam1A.1 aminoacylation ribozyme variant] | 0.624
CCACACUUUAAGCAAUGGGUC [Fam1B.1 aminoacylation ribozyme variant] | 0.774
CCACACUUCAAGCAAUUGGAC [Fam1B.1 aminoacylation ribozyme variant] | 0.614
